# Format: physicochemical
# CONDITION_PARAMETERS: dynamic light scattering, 50 mM KPi pH 7.0, 1% DMSO; ND = not detected to precipitation limit
Measured CAC (critical aggregation concentration) by item

COMPOUND: Cc1cc(O)c2c(c1)C(=O)c1cc(O)cc(O)c1C2=O
CAC (critical aggregation concentration) / µM: 28
//
COMPOUND: COc1ccc2c(c1OC)CN1CCc3cc4c(cc3[C@@H]1C2)OCO4
CAC (critical aggregation concentration) / µM: 95
//
COMPOUND: COc1cc(C2Oc3cc([C@H]4Oc5cc(O)cc(O)c5C(=O)[C@@H]4O)ccc3OC2CO)ccc1O (some centres unmarked)
CAC (critical aggregation concentration) / µM: 0.47
//
COMPOUND: Oc1ccc2c(c1)OC[C@]1(O)Cc3cc(O)c(O)cc3[C@H]21
CAC (critical aggregation concentration) / µM: 57
//
COMPOUND: COc1cc(O)c2c(c1)C(=O)c1cc(C)cc(O)c1C2=O
CAC (critical aggregation concentration) / µM: 0.32
//
COMPOUND: C[C@]12CC[C@H](O)C[C@H]1CC[C@@H]1[C@@H]2CC[C@]2(C)[C@@H](c3ccc(=O)oc3)CC[C@]12O
CAC (critical aggregation concentration) / µM: 51
//
COMPOUND: O=c1c(O)c(-c2ccc(O)cc2)oc2cc(O)cc(O)c12
CAC (critical aggregation concentration) / µM: 81
//
COMPOUND: COc1cc2c(O)c3c(c(-c4ccc5c(c4)OCO5)c2cc1OC)C(=O)OC3
CAC (critical aggregation concentration) / µM: 40

###

# Format: physicochemical
# CONDITION_PARAMETERS: DLS, 25 °C, at twice the compound's CAC; ND = not detected to precipitation limit
Answer 0 if radius is under 80 nm, and 1 if it is 80 nm or more.

MOLECULE: COc1cc(O)c2c(c1)C(=O)c1cc(C)cc(O)c1C2=O
CLASS_LABEL: 1
//
MOLECULE: COc1cc2c(O)c3c(c(-c4ccc5c(c4)OCO5)c2cc1OC)C(=O)OC3
CLASS_LABEL: 1
//
MOLECULE: Oc1ccc2c(c1)OC[C@]1(O)Cc3cc(O)c(O)cc3[C@H]21
CLASS_LABEL: 0
//
MOLECULE: COc1ccc2c(c1OC)CN1CCc3cc4c(cc3[C@@H]1C2)OCO4
CLASS_LABEL: 0
//
MOLECULE: O=c1c(O)c(-c2ccc(O)cc2)oc2cc(O)cc(O)c12
CLASS_LABEL: 0
//
MOLECULE: COc1cc(/C=C/C(=O)CC(=O)/C=C/c2ccc(O)c(OC)c2)ccc1O
CLASS_LABEL: 1
//
MOLECULE: C[C@]12CC[C@H](O)C[C@H]1CC[C@@H]1[C@@H]2CC[C@]2(C)[C@@H](c3ccc(=O)oc3)CC[C@]12O
CLASS_LABEL: 1
//
MOLECULE: COc1cc(C2Oc3cc([C@H]4Oc5cc(O)cc(O)c5C(=O)[C@@H]4O)ccc3OC2CO)ccc1O (stereo partly shown)
CLASS_LABEL: 0
//
MOLECULE: Cc1cc(O)c2c(c1)C(=O)c1cc(O)cc(O)c1C2=O
CLASS_LABEL: 1

###

# STUDY_SYSTEM: malate dehydrogenase (MDH)
# PROTOCOL_DETAILS: Malate dehydrogenase
# Assay type: biochemical
# CONDITION_PARAMETERS: read-out: IC50 vs MDH, with DTT; with 1 mM DTT
pIC50: −log10 of the molar value.
MEASUREMENT_NAME: pIC50

COMPOUND: COc1cc(O)c2c(c1)C(=O)c1cc(C)cc(O)c1C2=O [physcion]
STUDY_SYSTEM: malate dehydrogenase (MDH)
MEASUREMENT_NAME: pIC50
ASSAY_RESULT: 5.10
//
COMPOUND: COc1cc(/C=C/C(=O)CC(=O)/C=C/c2ccc(O)c(OC)c2)ccc1O [curcumin]
STUDY_SYSTEM: malate dehydrogenase (MDH)
MEASUREMENT_NAME: pIC50
ASSAY_RESULT: 5.00
//
COMPOUND: Cc1cc(O)c2c(c1)C(=O)c1cc(O)cc(O)c1C2=O [emodin]
STUDY_SYSTEM: malate dehydrogenase (MDH)
MEASUREMENT_NAME: pIC50
ASSAY_RESULT: 4.74

###

# STUDY_SYSTEM: AmpC β-lactamase (Escherichia coli, UniProt P00811)
# Sequence (P00811 20-377): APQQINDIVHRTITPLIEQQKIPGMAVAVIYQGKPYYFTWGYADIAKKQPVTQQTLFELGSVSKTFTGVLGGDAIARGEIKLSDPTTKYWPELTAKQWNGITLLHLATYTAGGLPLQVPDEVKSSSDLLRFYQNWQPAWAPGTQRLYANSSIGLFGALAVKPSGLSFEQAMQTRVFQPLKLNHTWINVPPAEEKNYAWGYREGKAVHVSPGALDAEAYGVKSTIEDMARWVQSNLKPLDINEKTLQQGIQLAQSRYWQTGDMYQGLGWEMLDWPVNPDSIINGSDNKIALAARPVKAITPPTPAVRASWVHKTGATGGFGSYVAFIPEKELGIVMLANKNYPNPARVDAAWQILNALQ
# PROTOCOL_DETAILS: biochemical
# Assay type: biochemical
# CONDITION_PARAMETERS: IC50 vs AmpC β-lactamase, no DTT

STRUCTURE: Cc1cc(O)c2c(c1)C(=O)c1cc(O)cc(O)c1C2=O
STUDY_SYSTEM: AmpC β-lactamase (Escherichia coli, UniProt P00811)
READOUT_UNIT: µM
IC50: 27
--
STRUCTURE: COc1cc(O)c2c(c1)C(=O)c1cc(C)cc(O)c1C2=O
STUDY_SYSTEM: AmpC β-lactamase (Escherichia coli, UniProt P00811)
READOUT_UNIT: µM
IC50: 7

###

# pIC50 values compiled below
# STUDY_SYSTEM: malate dehydrogenase (MDH)
# PROTOCOL_DETAILS: Malate dehydrogenase
# Assay type: biochemical
# CONDITION_PARAMETERS: read-out: IC50 vs MDH, no detergent; 50 mM potassium phosphate, pH 7.0; ND = not detected to precipitation limit
pIC50: −log10 of the molar value.

MOLECULE: COc1cc(O)c2c(c1)C(=O)c1cc(C)cc(O)c1C2=O [physcion]
STUDY_SYSTEM: malate dehydrogenase (MDH)
pIC50: 4.96

MOLECULE: Cc1cc(O)c2c(c1)C(=O)c1cc(O)cc(O)c1C2=O [emodin]
STUDY_SYSTEM: malate dehydrogenase (MDH)
pIC50: 4.55

MOLECULE: Oc1ccc2c(c1)OC[C@]1(O)Cc3cc(O)c(O)cc3[C@H]21 [brazilin]
STUDY_SYSTEM: malate dehydrogenase (MDH)
pIC50: 5.80

MOLECULE: COc1cc(/C=C/C(=O)CC(=O)/C=C/c2ccc(O)c(OC)c2)ccc1O [curcumin]
STUDY_SYSTEM: malate dehydrogenase (MDH)
pIC50: 5.05

MOLECULE: Oc1cc(O)c2cc(O)c(-c3cc(O)c(O)c(O)c3)[o+]c2c1 [delphinidin]
STUDY_SYSTEM: malate dehydrogenase (MDH)
pIC50: 4.57

MOLECULE: C[C@]12CC[C@H](O)C[C@H]1CC[C@@H]1[C@@H]2CC[C@]2(C)[C@@H](c3ccc(=O)oc3)CC[C@]12O [bufalin]
STUDY_SYSTEM: malate dehydrogenase (MDH)
pIC50: 4.00

MOLECULE: O=c1c(O)c(-c2ccc(O)cc2)oc2cc(O)cc(O)c12 [kaempferol]
STUDY_SYSTEM: malate dehydrogenase (MDH)
pIC50: 4.21

MOLECULE: COc1cc2c(O)c3c(c(-c4ccc5c(c4)OCO5)c2cc1OC)C(=O)OC3 [diphyllin]
STUDY_SYSTEM: malate dehydrogenase (MDH)
pIC50: 4.31

MOLECULE: COc1cc(C2Oc3cc([C@H]4Oc5cc(O)cc(O)c5C(=O)[C@@H]4O)ccc3OC2CO)ccc1O (stereo partly shown) [silibinin]
STUDY_SYSTEM: malate dehydrogenase (MDH)
pIC50: 4.92

MOLECULE: O=c1c(-c2ccc(O)cc2)coc2c([C@@H]3O[C@H](CO)[C@@H](O)[C@H](O)[C@H]3O)c(O)ccc12 [puerarin]
STUDY_SYSTEM: malate dehydrogenase (MDH)
pIC50: 3.87

###

# STUDY_SYSTEM: Trypsin from porcine pancreas (Sus scrofa)
# Sequence (P00761 9-231): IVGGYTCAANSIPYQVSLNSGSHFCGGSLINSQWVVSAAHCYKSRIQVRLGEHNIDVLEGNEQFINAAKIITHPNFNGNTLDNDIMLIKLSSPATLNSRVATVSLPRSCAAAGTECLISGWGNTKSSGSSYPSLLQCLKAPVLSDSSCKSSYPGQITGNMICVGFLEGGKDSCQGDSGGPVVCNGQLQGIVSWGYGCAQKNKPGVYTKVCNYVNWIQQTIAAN
# PROTOCOL_DETAILS: Trypsin inhibition assay
# Format: biochemical
# CONDITION_PARAMETERS: IC50 vs trypsin, no detergent, 50 mM potassium phosphate, pH 7.0
pIC50: −log10 of the molar value.

STRUCTURE: O=c1c(O)c(-c2ccc(O)cc2)oc2cc(O)cc(O)c12
pIC50: 3.96
--
STRUCTURE: Cc1cc(O)c2c(c1)C(=O)c1cc(O)cc(O)c1C2=O
pIC50: 4.31

###

# STUDY_SYSTEM: HIV-2 protease (Human immunodeficiency virus type 2 subtype A, UniProt P04584)
# Sequence (P04584 514-612 limits assumed): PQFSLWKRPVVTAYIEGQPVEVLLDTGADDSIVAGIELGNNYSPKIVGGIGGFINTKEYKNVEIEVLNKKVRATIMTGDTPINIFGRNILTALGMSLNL
# PROTOCOL_DETAILS: HIV-2 protease inhibition assay
# CONDITION_PARAMETERS: IC50 vs HIV-2 protease, no detergent, 50 mM sodium acetate, pH 5.5, 200 mM sodium chloride, 1 mM EDTA and 0.5 mM TCEP
pIC50: −log10 of the molar value.
MEASUREMENT_NAME: pIC50

STRUCTURE: COc1cc(/C=C/C(=O)CC(=O)/C=C/c2ccc(O)c(OC)c2)ccc1O
ASSAY_RESULT: 4.72

Recorded values, source paper PMC4646422.
